System: IFNγ-induced STAT1 phosphorylation (pSTAT1) in B16F10 cells
Assay: B16F10 Phospho-STAT1 HTRF proximal pharmacodynamic (PD) assay
Assay type: cell-based, murine
Conditions: x-fold versus corresponding chromane comparator, B16F10 pSTAT1
Measure: Dihydrobenzofuran or Indoline x-fold>potency cellular
Keep the answer to the number alone.

>>> observed_result("O=C1CN(c2c(O)cc3c(c2F)C[C@H](CNCCC2CCOC2)O3)S(=O)(=O)N1 (some centres unmarked) [Compound 108]")
11.8
>>> observed_result("CC(C)CCNC[C@H]1Cc2c(cc(O)c(N3CC(=O)NS3(=O)=O)c2F)O1 [Compound 115]")
8.3
>>> observed_result("CC(C)CCNC[C@H]1Cc2c(cc(O)c(N3CC(=O)NS3(=O)=O)c2F)N1 [Compound 139]")
4.5
>>> observed_result("O=C1CN(c2c(O)cc3c(c2F)C[C@H](CNCCC2CCOCC2)O3)S(=O)(=O)N1 [Compound 125]")
10.4

Consider the additional compound presented here.
Determine from records and report Dihydrobenzofuran or Indoline x-fold>potency cellular for O=C1CN(c2c(O)cc3c(c2F)C[C@H](CNCCCC(F)F)O3)S(=O)(=O)N1 [Compound 107]
2.7

###

Test system: IFNγ-induced STAT1 phosphorylation (pSTAT1) in B16F10 cells
Experiment: B16F10 Phospho-STAT1 HTRF proximal pharmacodynamic (PD) assay
Type: cell-based, murine
Details: x-fold versus corresponding chromane comparator, B16F10 pSTAT1
Measure: Dihydrobenzofuran or Indoline x-fold>potency cellular

Recorded Dihydrobenzofuran or Indoline x-fold>potency cellular, per entry:
>>> observed_result("O=C1CN(c2c(O)cc3c(c2F)C[C@H](CNCC2CCC(C(F)(F)F)CC2)O3)S(=O)(=O)N1 (stereo partly drawn)")
"~1.0"
>>> observed_result("O=C1CN(c2c(O)cc3c(c2F)C[C@H](CNCC2(CF)CC2)O3)S(=O)(=O)N1")
">2.3"

Consider the additional compound presented here.
Determine from records and report Dihydrobenzofuran or Indoline x-fold>potency cellular for O=C1CN(c2c(O)cc3c(c2F)C[C@H](CNCC2CC(c4ccccc4)C2)O3)S(=O)(=O)N1 (stereo partly drawn)
>38.8

###

Target: His tagged PTPN2 (TC45) protein (Homo sapiens (Human), UniProt P17706)
Sequence (P17706 other isoform, or with tags, fused parts or gaps): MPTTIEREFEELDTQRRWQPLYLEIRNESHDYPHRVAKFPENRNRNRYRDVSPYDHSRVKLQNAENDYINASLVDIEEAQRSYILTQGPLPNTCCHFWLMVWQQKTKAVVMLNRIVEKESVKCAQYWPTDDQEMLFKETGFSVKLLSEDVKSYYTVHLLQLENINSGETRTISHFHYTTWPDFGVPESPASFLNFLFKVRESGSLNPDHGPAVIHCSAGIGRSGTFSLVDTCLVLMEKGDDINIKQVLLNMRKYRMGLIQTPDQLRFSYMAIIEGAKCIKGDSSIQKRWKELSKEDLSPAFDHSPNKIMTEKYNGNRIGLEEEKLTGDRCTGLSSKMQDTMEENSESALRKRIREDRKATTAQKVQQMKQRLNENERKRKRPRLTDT
Assay: PTPN2 Mobility Shift Assay (MSA)
Type: biochemical
Settings: enzyme 0.5 nM, substrate 2 μM
pIC50: −log10 of the molar value.
The reader will find reported pIC50 values listed item by item below.

>>> observed_result("O=C1CN(c2c(O)cc3c(c2F)C[C@H](CNCC2CCC(C(F)(F)F)CC2)O3)S(=O)(=O)N1 (stereo partly shown)")
"> 8.00"
>>> observed_result("O=C1CN(c2c(O)cc3c(c2F)C[C@H](CNCC2CCC2)N3)S(=O)(=O)N1")
"7.00 to 8.00"
>>> observed_result("CC(C)CCNC[C@H]1Cc2c(cc(O)c(N3CC(=O)NS3(=O)=O)c2F)O1")
"7.00 to 8.00"

Determine from records and report pIC50 for CC(C)CCNC[C@H]1Cc2c(cc(O)c(N3CC(=O)NS3(=O)=O)c2F)N1
7.00 to 8.00

Determine from records and report pIC50 for O=C1CN(c2c(O)cc3c(c2F)C[C@H](CNCC2CC2)N3)S(=O)(=O)N1
7.00 to 8.00

Determine from records and report pIC50 for O=C1CN(c2c(O)cc3c(c2F)C[C@H](CNCCCOCC(F)F)O3)S(=O)(=O)N1
7.00 to 8.00

Determine from records and report pIC50 for O=C1CN(c2c(O)cc3c(c2F)C[C@H](CNCC2(CF)CC2)O3)S(=O)(=O)N1
7.00 to 8.00

Determine from records and report pIC50 for CCCNC[C@H]1Cc2c(cc(O)c(N3CC(=O)NS3(=O)=O)c2F)O1
7.00 to 8.00

Determine from records and report pIC50 for CC[C@@H](C)NC[C@H]1Cc2c(cc(O)c(N3CC(=O)NS3(=O)=O)c2F)N1
> 8.00

Determine from records and report pIC50 for O=C1CN(c2c(O)cc3c(c2F)C[C@H](CNCCC2CC(F)(F)C2)O3)S(=O)(=O)N1
> 8.00

Determine from records and report pIC50 for O=C1CN(c2c(O)cc3c(c2F)C[C@H](CNCC2CC2)O3)S(=O)(=O)N1
7.00 to 8.00

Determine from records and report pIC50 for CCCNC[C@H]1Cc2c(cc(O)c(N3CC(=O)NS3(=O)=O)c2F)N1
7.00 to 8.00
